Tested on: Pythium ultimum
assay-method-text: Mycelial growth test
Assay type: cell-based
measurement-conditions: Globisporangium ultimum, 72 h, PU, 40 ppm, read-out: Percent Fungus Growth Inhibition
For each of the molecules below, state its inhibition at 40 ppm.
One number for each entry, in %.

O=C(Nc1ccccc1)Nc1ccc(Oc2nsnc(Cl)c2=O)cc1    0
CC(=O)c1ccccc1Oc1nsnc(Cl)c1=O    100
CNC(=O)Nc1ccc(Oc2nsnc(Cl)c2=O)cc1    100

Please give inhibition at 40 ppm, item by item, for the list that follows.
1. O=c1c(Cl)nsnc1Oc1cc(Cl)cc(Cl)c1
2. O=C(Nc1ccccc1)Oc1ccc(Oc2nsnc(Cl)c2=O)cc1

Response given:
[100, 100]

* * *

So I've got a bunch of compounds here, and I need their Spore Germination Rating values.
Tested on: Botrytis cinerea
assay-method-text: Spore germination test
Format: cell-based
measurement-conditions: BC, 1.0 ppm, 48 hours

O=c1c(Cl)nsnc1Oc1ccccc1Cl    3 (60-80)
O=c1c(Cl)nsnc1Oc1ccc(O)cc1    4 (80-100)
COc1cc(Oc2nsnc(Cl)c2=O)cc(OC)c1C(C)=O    4 (80-100)

Answer for every listed entry: what is its Spore Germination Rating? The entries follow.
1. CC(=O)Nc1ccccc1Oc1nsnc(Cl)c1=O
2. O=c1c(Cl)nsnc1Oc1ccc(Cl)cc1
3. CC(=O)c1cccc(Oc2nsnc(Cl)c2=O)c1
4. O=c1c(Cl)nsnc1Oc1cccc2ccccc12
5. O=c1c(Cl)nsnc1Oc1ccc([N+](=O)[O-])cc1Cl

Response given:
["4 (80-100)", "0 (0-10)", "4 (80-100)", "2 (40-60)", "3 (60-80)"]

Please look at the items below and tell me Spore Germination Rating for each one, in order.
1. Cc1cc(Oc2nsnc(Cl)c2=O)cc(C)c1Cl
2. O=c1c(Cl)nsnc1Oc1ccc([N+](=O)[O-])cc1
3. N#CCc1ccc(Oc2nsnc(Cl)c2=O)cc1

Response given:
["4 (80-100)", "0 (0-10)", "4 (80-100)"]

Below are 7 compounds. Give each one its Spore Germination Rating.
1. O=c1c(Cl)nsnc1Oc1c(Cl)cc(Cl)cc1Cl
2. O=c1c(Cl)nsnc1Oc1ccc(Cl)c(Cl)c1
3. O=c1c(Cl)nsnc1Oc1c(Cl)c(Cl)c(Cl)c(Cl)c1Cl
4. Cc1cc(Cl)c(Oc2nsnc(Cl)c2=O)cc1C
5. Cc1cccc(Oc2nsnc(Cl)c2=O)c1
6. Nc1ccc(Oc2nsnc(Cl)c2=O)cc1
7. Cc1cc(Oc2nsnc(Cl)c2=O)ccc1Cl

Response given:
1. 0 (0-10)
2. 4 (80-100)
3. 1 (10-40)
4. 3 (60-80)
5. 4 (80-100)
6. 0 (0-10)
7. 4 (80-100)

Provide the reported Spore Germination Rating of each entry below, same order.
1. O=c1c(Cl)nsnc1Oc1c(Cl)cccc1Cl
2. O=c1c(Cl)nsnc1Oc1cccc(Cl)c1
3. COc1ccc(Cl)c(Oc2nsnc(Cl)c2=O)c1
4. N#Cc1ccc(Oc2nsnc(Cl)c2=O)cc1
5. Cc1cc(Oc2nsnc(Cl)c2=O)cc(C)c1Br
6. CCCCOc1ccc(Oc2nsnc(Cl)c2=O)cc1

Response given:
["4 (80-100)", "4 (80-100)", "4 (80-100)", "2 (40-60)", "4 (80-100)", "4 (80-100)"]
